# Test system: NCI-H522 lung
# procedure text: NCI-60 one-dose screen, 48 h (100 = growth as untreated, 0 = no growth, -100 = all killed)
# settings: 10 µM unless noted
About 83,000 compounds went through this panel and 20% of them were active in at least one assay; those are over-represented in the sample as a whole.
metric: growth (%)

# compound, endpoint unit, value
measured = [
    ("COc1ccc(-c2coc3c(CO)c(O)ccc3c2=O)cc1", "%", 67.2),
    ("CC(C)C1(C(C)C)NC(=O)NC1=O", "%", 94.8),
    ("COc1ccccc1N1CCN(CC(O)COc2c(Br)c(Br)c(Br)c3c2OC(C)(C)C3)CC1 (centres undefined)", "%", 55.1),
    ("COc1cc([C@@H]2c3cc4c(cc3C(OC3O[C@@H]5COC(C)O[C@H]5[C@H](O)[C@H]3O)C3COC(=O)[C@@H]32)OCO4)cc(OC)c1O (some centres undefined)", "%", 24.3),
]

---

# Test system: PC-3 prostate
# procedure text: NCI-60 one-dose screen, 48 h (100 = growth as untreated, 0 = no growth, -100 = all killed)
# settings: 10 µM unless noted
This is part of a sample that, as a whole, favours compounds with a hit. Of some 83,000 tested, about 20% had one in any assay.

# compound string, growth, %
data = [
    ("CCn1c(SCC(=O)c2ccc(Br)cc2)nnc1-c1cc2c([nH]c3ccccc32)c(-c2cccc(O)c2)n1", 68.6),
    ("O=C(Nc1ccc(-n2ccc3c(NC(=O)c4ccccc4)nccc32)cc1)Nc1ccc(Cl)c(Cl)c1", 23.9),
    ("Nn1c(SCC(=O)Nc2cc(Cl)c(Cl)cc2Cl)nnc1-c1cc(F)c(Cl)cc1Cl", 97.8),
    ("O=C1CCC(=O)N1C1CCCCC1", 99.8),
    ("Cc1nssc1=S", 88.2),
    ("C[C@H]1C=C(C[C@@H](O)CCCCCCCCCC[C@@H](O)[C@H]2CCC(=O)O2)C(=O)O1", 89.4),
    ("CCCOC(=O)c1ccc([N+](=O)[O-])o1", 91.6),
    ("COc1ccccc1C(OC(C)=O)OC(C)=O", 102),
]

---

# System: U251 CNS
# procedure text: NCI-60 one-dose screen, 48 h (100 = growth as untreated, 0 = no growth, -100 = all killed)
# settings: 10 µM unless noted
This is part of a sample that, as a whole, favours compounds with a hit. Of some 83,000 tested, about 20% had one in any assay.
metric: growth (%)

# compound, endpoint unit, value
rows = [
    ("CN(C)c1ncc(C#Cc2c(F)cccc2F)c2ccccc12", "%", 80),
    ("N#Cc1c2c(c(N)[nH]c1=O)C(=O)NC2(O)c1ccccc1 (centres undefined)", "%", 101),
    ("COc1ccc(Cl)cc1NC(=O)c1cc2c(n1C)-c1nc(NC(=O)C(C)C)sc1CC2", "%", 59.9),
    ("C=C1C(=O)O[C@H]2[C@H]1CC/C(COC(=O)CCCC(=O)OC/C1=C/CC[C@@]3(C)O[C@H]3[C@H]3OC(=O)C(=C)[C@@H]3CC1)=C\\CC[C@@]1(C)O[C@@H]21", "%", 48),
]

---

# Tested on: MDA-MB-231 breast
# procedure text: NCI-60 one-dose screen, 48 h (100 = growth as untreated, 0 = no growth, -100 = all killed)
# settings: 10 µM unless noted
About 83,000 compounds went through this panel and 20% of them were active in at least one assay; those are over-represented in the sample as a whole. Activity calls are given as the source filed them. How the source made its calls: active means growth percent below 10; inactive means the rest.
Overview of recorded growth for various compounds
metric: growth

# compound, metric, value
records = [
    ("COC(=O)c1ccc(NC(N)=NCC(C)(C)COc2ccc(C(F)(F)F)cc2)nc1", "growth", "48.8% (inactive)"),
    ("N#CC1=C(N)Oc2c(ccc3ccccc23)C1c1cc(=O)oc2ccc(Cl)cc12 (configuration not stated)", "growth", "50% (inactive)"),
    ("O=C(O)c1ccc(-n2cc(/C=N/Nc3ccc(F)cc3)c(-c3cccc(C(F)(F)F)c3)n2)cc1", "growth", "87.8% (inactive)"),
    ("CN(C)C(=O)Nc1nc2cc(Cl)c(Cl)cc2[nH]1", "growth", "46.1% (inactive)"),
    ("CCC(CC(C)C)Nc1ccc(NC(CC)CC(C)C)cc1 (configuration not stated)", "growth", "93.1% (inactive)"),
    ("COC(=O)/C=C/C(=O)c1cc(C)cc(C)c1O", "growth", "114% (inactive)"),
    ("COC(=O)CCCNS(=O)(=O)c1cc(C(=O)Nc2ccc(NC(=O)c3cc(S(=O)(=O)NCCCC(=O)OC)c(O)c(O)c3O)cc2)c(O)c(O)c1O", "growth", "94.7% (inactive)"),
]

The measurements presented in this section are drawn from PubChem BioAssay (NCI).
